Test System: human BRD4 second bromodomain (BDII_E352-M457) (Homo sapiens (Human))
Test Method Notes: TR-FRET bromodomain binding assay, BRD4 second bromodomain
pKi: −log10 of the molar value.
# label = met if pKi >= 8 else not met

Please review the following examples before continuing.
Q. Reported pKi reaches at least 8 for Cn1cc(-c2cc(NS(C)(=O)=O)ccc2Oc2ccc(F)cc2)c2cc[nH]c2c1=O ?
A. met

Q. Hello, I need to know if Cn1cc(-c2cc(CS(C)(=O)=O)ccc2Oc2ccc(F)cc2F)c2cn[nH]c2c1=O has measured pKi not below 8. Thanks!
A. not met

***
Q. hey, is pKi for this one >= 8? CN1CCCC1CCOc1ccc(S(C)(=O)=O)cc1-c1cn(C)c(=O)c2[nH]ccc12 (stereo not shown)
A. not met

Q. Given the entry CCN(C)C(=O)c1cc2c(-c3cc(NS(C)(=O)=O)ccc3Oc3ccccc3)nn(C)c(=O)c2[nH]1 , answer whether its pKi meets or surpasses 8.
A. not met

Q. In plain terms: is recorded pKi at least 8 for Cn1cc(-c2cc(CN3CCCC3)ccc2OCC2CC2)c2cc[nH]c2c1=O ?
A. not met

Q. Decide: pKi of Cn1cc(-c2cc(NS(C)(=O)=O)ccc2OCc2ccccc2)c2cc[nH]c2c1=O >= 8?
A. not met

Q. Please indicate if the recorded pKi for Cn1cc(-c2cc(NS(C)(=O)=O)ccc2Oc2ccccc2)c2cc(C(N)=O)[nH]c2c1=O meets or exceeds 8.
A. met

Q. Tell me whether pKi is at least 8 here: Cn1cc(-c2cc(NS(C)(=O)=O)ccc2Oc2ccccc2)c2cc(CO)[nH]c2c1=O
A. met

Q. Hello, I need to know if Cn1cc(-c2cc(CC(=O)O)ccc2OCc2ccccc2)c2cc[nH]c2c1=O has measured pKi not below 8. Thanks!
A. not met

Q. Reported pKi at or above 8? CCS(=O)(=O)Nc1ccc(OCC(C)(C)C)c(-c2cn(C)c(=O)c3[nH]ccc23)c1
A. not met

Q. Could you please find out whether CCOC(=O)c1cc2c(-c3cc(N(CC)S(C)(=O)=O)ccc3Oc3ccccc3)nn(C)c(=O)c2[nH]1 has pKi that meets 8 or exceeds it?
A. not met

Q. Would you say CCCS(=O)(=O)Nc1ccc(OC2CCOCC2)c(-c2cn(C)c(=O)c3[nH]ccc23)c1 shows pKi at minimum 8?
A. not met

Q. Say whether CCS(=O)(=O)Nc1ccc(Oc2c(F)cc(F)cc2F)c(-c2cn(C)c(=O)c3[nH]ccc23)c1 shows pKi of 8 or more.
A. met

Q. Kindly determine if pKi recorded for Cn1cc(-c2cc(NS(C)(=O)=O)ccc2Oc2ccc(C#N)cc2)c2cc[nH]c2c1=O is above or exactly 8.
A. met

Q. Does the reported pKi for CCS(=O)(=O)Nc1ccc(OC2CCOCC2)c(-c2cn(C)c(=O)c3[nH]ccc23)c1 fall at or above the 8 mark?
A. met

Q. Please tell me: is the compound CCNC(=O)c1cc2c(-c3cc(NS(C)(=O)=O)ccc3Oc3ccccc3)nn(C)c(=O)c2[nH]1 at or over 8 in terms of pKi?
A. met

Q. Confirm if pKi reported for the compound Cn1cc(-c2cc(C(=O)Nc3ncccn3)ccc2Oc2ccc(F)cc2F)c2cc[nH]c2c1=O is 8 or above.
A. not met

Q. For this compound, is measured pKi 8 or higher? CCS(=O)(=O)Nc1ccc(Oc2ccc(F)cc2F)c(-c2cn(C)c(=O)c3[nH]c(CO)cc23)c1
A. met

Q. Check the entry Cn1cc(-c2cc(S(C)(=O)=O)ccc2OCC2(F)COC2)c2cc[nH]c2c1=O : does pKi equal or exceed 8?
A. not met
